Property: fraction unbound at 4.5 h; scope: individual molecules
Assay: Fraction unbound in human plasma incubated for 4.5 hrs by LC/MS/MS analysis
Format: ADME, cell-free
I only need the number, thanks.

1. CCS(=O)(=O)c1ccc(CNC(=O)c2cc3c(s2)C2(CCN([C@H](C)c4cnc(C(F)(F)F)nc4)CC2)O[C@@H](C)C3)nc1 ... 0.12
2. CCS(=O)(=O)c1ccc(CNC(=O)c2cc3c(s2)C2(CCN([C@H](C)c4cnc(C(F)(F)F)nc4)CC2)O[C@@H](C)C3)cc1 ... 0.041

// sample "CCS(=O)(=O)c1ccc(CNC(=O)c2cc3c(s2)C2(CCN([C@H](C)c4cnc(C(F)(F)F)nc4)CC2)OCC3)cc1" , its fraction unbound at 4.5 h was 0.056

Note to self: fraction unbound at 4.5 h recorded for "CCS(=O)(=O)c1ccc(CNC(=O)c2cc3c(s2)C2(CCN([C@H](C)c4ccc(C#N)cc4)CC2)OCC3)nc1" was 0.05

// fraction unbound at 4.5 h lookup, molecule = "CCS(=O)(=O)c1ccc(CNC(=O)c2cc3c(s2)C2(CCN([C@H](C)c4ccc(C#N)cc4)CC2)OCC3)cc1" , result: 0.02

---

Assay: Apparent permeability from apical to basolateral side in dog MDCK cells at 20 uM at pH 7.4
Type: ADME, cell-based, Canis lupus familiaris
Quick reference for Papp A→B at 20 µM among some compounds
Number in ×10⁻⁶ cm/s, nothing else.

Field: example entries. Status: answers known.
1) CCS(=O)(=O)c1ccc(CNC(=O)c2cc3c(s2)C2(CCN([C@H](C)c4ccc(C#N)cc4)CC2)OCC3)cc1 ... 7.07
2) CCS(=O)(=O)c1ccc(CNC(=O)c2cc3c(s2)C2(CCN([C@H](C)c4cnc(C(F)(F)F)nc4)CC2)OCC3)cc1 ... 8.56
3) CCS(=O)(=O)c1ccc(CNC(=O)c2cc3c(s2)C2(CCN([C@H](C)c4cnc(C(F)(F)F)nc4)CC2)O[C@@H](C)C3)nc1 ... 9.07
4) CCS(=O)(=O)c1ccc(CNC(=O)c2cc3c(s2)C2(CCN([C@H](C)c4ccc(C#N)cc4)CC2)OCC3)nc1 ... 8.5

The reported value for "CCS(=O)(=O)c1ccc(CNC(=O)c2cc3c(s2)C2(CCN([C@H](C)c4cnc(C(F)(F)F)nc4)CC2)O[C@@H](C)C3)cc1" in terms of Papp A→B at 20 µM is 7.57

---

Assay: Solubility of the compound in FaSSIF measured after 16 hrs by HPLC analysis
Format: physicochemical
Listed next: entries and their corresponding solubility at 16 h.
Field format: number, assumed µg/mL, no unit text.

1. CCS(=O)(=O)c1ccc(CNC(=O)c2cc3c(s2)C2(CCN([C@H](C)c4ccc(C#N)cc4)CC2)OCC3)cc1 ... 9
2. CCS(=O)(=O)c1ccc(CNC(=O)c2cc3c(s2)C2(CCN([C@H](C)c4cnc(C(F)(F)F)nc4)CC2)O[C@@H](C)C3)nc1 ... 220
3. CCS(=O)(=O)c1ccc(CNC(=O)c2cc3c(s2)C2(CCN([C@H](C)c4cnc(C(F)(F)F)nc4)CC2)OCC3)cc1 ... 16
4. CCS(=O)(=O)c1ccc(CNC(=O)c2cc3c(s2)C2(CCN([C@H](C)c4cnc(C(F)(F)F)nc4)CC2)O[C@@H](C)C3)cc1 ... 24

What the record says about "CCS(=O)(=O)c1ccc(CNC(=O)c2cc3c(s2)C2(CCN([C@H](C)c4ccc(C#N)cc4)CC2)OCC3)nc1" : solubility at 16 h is 185

---

CL free by entry:
Conditions: human, microsomes, 0.5 h, 2 µM
Write it as a number; the unit mL/min/kg goes unstated.

Consider the following illustrative entries.
1. CCS(=O)(=O)c1ccc(CNC(=O)c2cc3c(s2)C2(CCN([C@H](C)c4cnc(C(F)(F)F)nc4)CC2)O[C@@H](C)C3)cc1 ... 36.2
2. CCS(=O)(=O)c1ccc(CNC(=O)c2cc3c(s2)C2(CCN([C@H](C)c4cnc(C(F)(F)F)nc4)CC2)O[C@@H](C)C3)nc1 ... 32
3. CCS(=O)(=O)c1ccc(CNC(=O)c2cc3c(s2)C2(CCN([C@H](C)c4ccc(C#N)cc4)CC2)OCC3)cc1 ... 406

Kindly note the recorded CL free for "C[C@H](c1ccc(C#N)cc1)N1CCC2(CC1)OCCc1cc(C(=O)NCc3ccc(S(C)(=O)=O)cc3)sc12" , which is 218

Entry "CCS(=O)(=O)c1ccc(CNC(=O)c2cc3c(s2)C2(CCN([C@H](C)c4cnc(C(F)(F)F)nc4)CC2)OCC3)cc1" , CL free reported as 69.5

Per the record, "CCS(=O)(=O)c1ccc(CNC(=O)c2cc3c(s2)C2(CCN([C@H](C)c4ccc(C#N)cc4)CC2)OCC3)nc1" has CL free of 92.2

---

Conditions: human, microsomes, 0.5 h, 2 µM
recorded.endpoint: CL free (mL/min/kg)
Numbers only here, please. The scale is mL/min/kg.

Look over these answered cases.
1. CS(=O)(=O)c1ccc(CNC(=O)c2cc3c(s2)C2(CCN(Cc4ccc(C#N)cc4)CC2)OCC3)cc1 ... 80.7
2. CS(=O)(=O)c1ccc(CNC(=O)c2cc3c(s2)C2(CCN(Cc4ccc(C(F)(F)F)cc4)CC2)OCC3)cc1 ... 448
3. CS(=O)(=O)c1ccc(CNC(=O)c2cc3c(s2)C2(CCN(Cc4ccc(Cl)cc4)CC2)OCC3)cc1 ... 495

Reported CL free ( "CS(=O)(=O)c1ccc(CNC(=O)c2cc3c(s2)C2(CCN(Cc4ccc(Cl)cc4Cl)CC2)OCC3)cc1" ) = 3450
